Kindly state pIC50 for each of the entries shown.
Molecular target: Human complement C1s enzyme (Homo sapiens)
Sequence (P09871 438-688 limits assumed): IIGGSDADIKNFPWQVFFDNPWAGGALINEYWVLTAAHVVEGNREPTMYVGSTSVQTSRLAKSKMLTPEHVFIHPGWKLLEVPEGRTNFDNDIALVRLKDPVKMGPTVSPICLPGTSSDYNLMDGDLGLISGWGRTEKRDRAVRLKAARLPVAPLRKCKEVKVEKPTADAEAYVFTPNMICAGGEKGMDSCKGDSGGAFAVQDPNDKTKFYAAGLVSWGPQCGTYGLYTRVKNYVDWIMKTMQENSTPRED
Sequence (P09871 16-437 partner limits assumed): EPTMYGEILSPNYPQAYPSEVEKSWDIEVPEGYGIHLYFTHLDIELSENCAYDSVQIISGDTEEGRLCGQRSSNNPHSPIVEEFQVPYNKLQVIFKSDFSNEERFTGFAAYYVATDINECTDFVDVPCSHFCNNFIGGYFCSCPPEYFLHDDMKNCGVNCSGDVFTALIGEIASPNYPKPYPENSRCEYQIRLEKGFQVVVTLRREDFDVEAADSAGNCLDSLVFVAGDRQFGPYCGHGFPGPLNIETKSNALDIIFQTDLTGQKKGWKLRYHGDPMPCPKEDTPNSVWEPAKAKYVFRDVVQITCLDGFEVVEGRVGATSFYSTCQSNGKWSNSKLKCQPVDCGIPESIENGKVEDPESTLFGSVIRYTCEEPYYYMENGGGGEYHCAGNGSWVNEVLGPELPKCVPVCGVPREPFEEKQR
Assay: Human C1s enzyme assay
Format: biochemical
Details: human complement C1s enzyme 1.16 nM, substrate Z-L-Lys-SBzl 100 μM, 5 min preincubation; read-out: IC50 (Stars), C1s Inhibiting Activity
pIC50: −log10 of the molar value.

Take a look at these entries with their results.
compound | pIC50
Cc1ccc(Oc2cccc(C(=O)NCC(=O)N3C[C@H](OC(F)F)C[C@H]3C(=O)NCc3cc4cnccc4[nH]3)c2F)cc1 [Compound 327] | > 7.00
O=C(NCC(=O)N1CC2(C[C@H]1C(=O)NCc1cc3cccnc3[nH]1)OCCO2)c1ccc2c(c1)-c1ccccc1C2(F)F [Compound 10] | < 6.00
C[C@@H](NC(=O)[C@@H]1C[C@]2(C)C[C@@H]2N1C(=O)CN1Cc2cc(-c3ccc(F)cc3)ccc2C1=O)c1cc2cnccc2[nH]1 [Compound 116] | < 6.00
O=C(NCC(=O)N1CC2(C[C@H]1C(=O)N[C@H](CO)c1cc3cnccc3[nH]1)OCCO2)c1ccc(Oc2ccc(F)cc2)cc1 [Compound 94] | < 6.00
COC[C@@]1(F)C[C@@H](C(=O)N[C@H](C)c2cc3cnccc3[nH]2)N(C(=O)CNC(=O)c2ccc(-c3ccc(F)cc3F)cc2)C1 [Compound 70] | < 6.00
C[C@@H](NC(=O)[C@@H]1CC2(CC2)CN1C(=O)CNC(=O)c1ccc2c(c1)Oc1ccccc1S2)c1cc2cnccc2[nH]1 [Compound 190] | > 7.00
CCc1ccc(Oc2cccc(C(=O)NCC(=O)N3C[C@H](OC(F)F)C[C@H]3C(=O)NCc3cc4cnccc4[nH]3)c2)cc1 [Compound 293] | > 7.00
O=C(NCC(=O)N1C[C@H](OC(F)F)C[C@H]1C(=O)NCc1cc2cnccc2[nH]1)c1ccc(-c2ccccn2)s1 [Compound 381] | > 7.00
C[C@@]12C[C@@H]1N(C(=O)CNC(=O)c1cccc(Oc3ccccc3)c1)[C@H](C(=O)NCc1cc3cnccc3[nH]1)C2 [Compound 152] | > 7.00
CS(=O)(=O)[C@@H]1C[C@@H](C(=O)N[C@H](CO)c2cc3cnccc3[nH]2)N(C(=O)CNC(=O)c2ccc(Oc3ccc(F)cc3)cc2)C1 [Compound 96] | < 6.00

Count: 3. Required value per item: pIC50.
1. C[C@@]12C[C@@H]1N(C(=O)CNC(=O)CCCOc1ccccc1)[C@H](C(=O)OCc1cc3c(cn1)CNC3)C2 [Compound 66]
2. C[C@@H](NC(=O)[C@@H]1C[C@]2(C)C[C@@H]2N1C(=O)CNC(=O)c1ccc2c(c1)-c1ccccc1C2(F)F)c1cc2cnccc2[nH]1 [Compound 76]
3. Cc1ccc(Oc2cccc(C(=O)NCC(=O)N3CC4(C[C@H]3C(=O)NCc3cc5cnccc5[nH]3)OCCO4)c2)c(F)c1 [Compound 307]

-- reply
["< 6.00", "< 6.00", "> 7.00"]

Value source: patent US20260062443A1
